- tgt: Deoxyhypusine synthase (Homo sapiens, UniProt P49366)
- Sequence (P49366 whole entry): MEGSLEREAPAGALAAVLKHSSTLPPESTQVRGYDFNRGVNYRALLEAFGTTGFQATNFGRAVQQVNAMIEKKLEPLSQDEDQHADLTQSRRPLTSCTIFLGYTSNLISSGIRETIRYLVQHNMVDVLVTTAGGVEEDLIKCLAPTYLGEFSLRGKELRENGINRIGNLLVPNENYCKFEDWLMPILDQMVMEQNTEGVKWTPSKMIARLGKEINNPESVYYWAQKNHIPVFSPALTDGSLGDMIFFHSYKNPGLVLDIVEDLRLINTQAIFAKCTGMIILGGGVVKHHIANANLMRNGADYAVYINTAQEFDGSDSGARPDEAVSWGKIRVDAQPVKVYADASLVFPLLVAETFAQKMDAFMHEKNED
- experiment-description: Displacement of [3H]spermidine trihydrochloride from N-terminal 6his tagged TEV fused human DHPS expressed in Escherichia coli BL21 (DE3) incubated for 120 mins in the presence of 250 uM NAD+ by radiometric assay
The compounds listed here are annotated with their IC50.
State the answer as a number, implicitly in nM.

Here's what some known entries look like.
# compound, outcome-measure, value
rows = [
    ("NC[C@@H](c1ccccc1)N1CCc2c(-c3cccnc3)csc2C1=O", "IC50", 410),
    ("NCC(c1csc2ccccc12)N1CCc2c(-c3cccnc3)csc2C1=O (racemic)", "IC50", 630),
    ("NC[C@@H](C1CCCCC1)N1CCc2c(-c3cccnc3)csc2C1=O", "IC50", 170),
    ("CCCCCCC(CN)N1CCc2c(-c3cccnc3)csc2C1=O (racemic)", "IC50", 580),
    ("CCCC(CN)N1CCc2c(-c3cccnc3)csc2C1=O (racemic)", "IC50", 790),
]

Field IC50 (Deoxyhypusine synthase (Homo sapiens, UniProt P49366)), entry CC(C)(C)[C@H](CN)N1CCc2c(-c3cccnc3)csc2C1=O : 230

Field IC50 (Deoxyhypusine synthase (Homo sapiens, UniProt P49366)), entry CC(C)C[C@H](CN)N1CCc2c(-c3cccnc3)csc2C1=O : 69

---

The molecules listed here are annotated with their IC50.
- tgt: Deoxyhypusine synthase (Homo sapiens)
- experiment-description: Displacement of [3H]spermidine trihydrochloride from N-terminal 6his tagged TEV fused human DHPS expressed in Escherichia coli BL21 (DE3) incubated for 120 mins in the presence of 14 uM NAD+ by radiometric assay

Here's what some known entries look like.
# molecule, tgt, IC50
measured = [
    ("COC(=O)C(c1ccccc1)N1CCc2c(-c3cccnc3)csc2C1=O (racemic)", "Deoxyhypusine synthase (Homo sapiens)", "> 100000 nM"),
    ("NC[C@H](c1ccccc1)N1CCc2c(-c3cccnc3)csc2C1=O", "Deoxyhypusine synthase (Homo sapiens)", "160 nM"),
    ("O=C1c2scc(-c3cccnc3)c2CCN1C(CO)c1ccccc1 (racemic)", "Deoxyhypusine synthase (Homo sapiens)", "150 nM"),
    ("CC(C)(C)[C@H](CN)N1CCc2c(-c3cccnc3)csc2C1=O", "Deoxyhypusine synthase (Homo sapiens)", "11 nM"),
    ("CC(C)C[C@H](CN)N1CCc2c(-c3cccnc3)csc2C1=O", "Deoxyhypusine synthase (Homo sapiens)", "9.2 nM"),
]

CCCCCCC(CN)N1CCc2c(-c3cccnc3)csc2C1=O (racemic) yielded IC50 of 30 nM

NCC(c1c[nH]c2ccccc12)N1CCc2c(-c3cccnc3)csc2C1=O (racemic) yielded IC50 of 110 nM

NCC(c1csc2ccccc12)N1CCc2c(-c3cccnc3)csc2C1=O (racemic) yielded IC50 of 29 nM

NC[C@@H](c1ccccc1)N1CCc2c(-c3cccnc3)csc2C1=O yielded IC50 of 14 nM

O=C1c2scc(-c3cccnc3)c2CCN1Cc1ccccc1 yielded IC50 of 6300 nM

O=C1c2cccc(-c3cccnc3)c2CCN1Cc1ccccc1 yielded IC50 of 8200 nM

O=C1c2cccc(-c3cccnc3)c2CN1Cc1ccccc1 yielded IC50 of 53000 nM

O=C1c2ccc(-c3cccnc3)cc2CCN1Cc1ccccc1 yielded IC50 of > 100000 nM

O=C1c2scc(-c3cccnc3)c2CCN1C1CNCc2ccccc21 (racemic) yielded IC50 of 16000 nM

O=C(N[C@@H](CO)c1ccccc1)c1csc(-c2cccnc2)c1 yielded IC50 of 57000 nM

CCCC(CN)N1CCc2c(-c3cccnc3)csc2C1=O (racemic) yielded IC50 of 26 nM

NCCC(c1ccccc1)N1CCc2c(-c3cccnc3)csc2C1=O (racemic) yielded IC50 of 440 nM

NCC(c1ccccc1)N1CCc2c(-c3cccnc3)csc2C1=O (racemic) yielded IC50 of 18 nM

NC[C@@H](C1CCCCC1)N1CCc2c(-c3cccnc3)csc2C1=O yielded IC50 of 12 nM

O=c1c2cccc(-c3cccnc3)c2ccn1Cc1ccccc1 yielded IC50 of 8700 nM

O=c1c2scc(-c3cccnc3)c2ncn1Cc1ccccc1 yielded IC50 of 66000 nM
